# protocol-text: in vivo
# Assay type: in vivo, Beagle dogs
# settings: both sexes, beagle, dog, in vivo, iv, 10 mg/kg, Cmax (estimated PK parameter)
quantity-kind: Cmax (ng/mL)
Write down the numeric answer in ng/mL and omit the unit.

Form field: reported Cmax of COc1cc(/C=C/C(=O)CC(=O)/C=C/c2ccc(O)c(OC)c2)ccc1O [Curcumin, reference compound]
233

---

# protocol-text: Tissue distribution of curcumin and THC at necropsy 15 minutes post-infusion
# Design: species or system Beagle dogs
# settings: both sexes, beagle, dog, in vivo, 10 mg/kg, 2 hour infusion; Plus H3PO4; read-out: Tissue level, Cortex, Brain
quantity-kind: concentration at 15 min (ng/g)
Write down the numeric answer in ng/g and omit the unit.

Please report the recorded concentration at 15 min for COc1cc(CCC(=O)CC(=O)CCc2ccc(O)c(OC)c2)ccc1O [THC, tetrahydrocurcumin] .
3.08

---

# protocol-text: Tissue distribution of curcumin and THC at necropsy 15 minutes post-infusion
# Parameters: species or system Beagle dogs
# settings: both sexes, beagle, dog, in vivo, 10 mg/kg, 8 hour infusion; No H3PO4; read-out: Tissue level, Muscle
quantity-kind: concentration at 15 min

Param item = COc1cc(CCC(=O)CC(=O)CCc2ccc(O)c(OC)c2)ccc1O [THC, tetrahydrocurcumin] ; retrieve measured concentration at 15 min.
0.38 ng/g

---

# protocol-text: Tissue distribution of curcumin and THC at necropsy 15 minutes post-infusion
# Parameters: species or system Beagle dogs
# settings: both sexes, beagle, dog, in vivo, 10 mg/kg, 8 hour infusion; Plus H3PO4; read-out: Tissue level, Heart
quantity-kind: concentration at 15 min
Respond with a number, then the unit of measure.

// lookup concentration at 15 min for COc1cc(CCC(=O)CC(=O)CCc2ccc(O)c(OC)c2)ccc1O [THC, tetrahydrocurcumin]
0.03 ng/g

---

# protocol-text: Tissue distribution of curcumin and THC at necropsy 15 minutes post-infusion
# Parameters: species or system Beagle dogs
# settings: both sexes, beagle, dog, in vivo, 10 mg/kg, Tissue level, Intestinal Wall, 2 hour infusion; Plus H3PO4
quantity-kind: concentration at 15 min (ng/g)
Provide the reading as a plain figure in ng/g.

Bench note: what concentration at 15 min did COc1cc(CCC(=O)CC(=O)CCc2ccc(O)c(OC)c2)ccc1O [THC, tetrahydrocurcumin] show?
2.12

---

# protocol-text: Tissue distribution of curcumin and THC at necropsy 15 minutes post-infusion
# Design: species or system Beagle dogs
# settings: both sexes, beagle, dog, in vivo, 10 mg/kg, Table 15, 2 hour infusion; +H3PO4; read-out: Tissue analysis, Pancreas
quantity-kind: concentration at 15 min (ng/g)
Could you give me the number in ng/g? Just the number is fine.

Bench note: what concentration at 15 min did COc1cc(CCC(=O)CC(=O)CCc2ccc(O)c(OC)c2)ccc1O [THC, tetrahydrocurcumin] show?
1.34

---

# protocol-text: Tissue distribution of curcumin and THC at necropsy 15 minutes post-infusion
# Parameters: species or system Beagle dogs
# settings: both sexes, beagle, dog, in vivo, 10 mg/kg, Table 14, 2 hour infusion; +H3PO4; read-out: Tissue analysis, Liver
quantity-kind: concentration at 15 min (ng/g)
Report only the number, with the unit ng/g understood.

Which concentration at 15 min reading was recorded for the molecule COc1cc(CCC(=O)CC(=O)CCc2ccc(O)c(OC)c2)ccc1O [THC, tetrahydrocurcumin] ?
4.58
